- System: CRL-7250
- assay.protocol: Cytotoxic Profiling of Annotated Libraries Using Quantitative High-Throughput Screening (AID 1296008); further: on the % scale 0 is the no-effect control and ±100 the full control effect; nearly all actives have a fitted effect of over 60% in size
- condition.context: Five cell lines viability, CellTiter-Glo ATP luminescence, 48-72 h; active compounds read low
Records with an inconclusive call do not appear.
measure: max response (%)
// note: answer is a bare numeric in %

As a guide, the following entries are already answered.
| item.smiles | unit.symbol | max response |
| --- | --- | --- |
| C/C(=C\CO[C@@H]1O[C@H](CO[C@H]2OC[C@](O)(CO)[C@H]2O)[C@@H](O)[C@H](O)[C@H]1O)C(C)(C)O | % | -3.13 |
| CCC(CC)Nc1nc(C)c(-c2ccc(OC(F)(F)F)cc2OC)nc1OC | % | -15 |
| COC1=CC(=O)O/C1=C(/OC)[C@@H]1O[C@H]1c1ccccc1 | % | -14.3 |
| CN(C)C(=O)C(=O)c1cn(C)c2cc(Cl)c(C(=O)N3CCC(Cc4ccc(F)cc4)CC3)cc12 | % | -5.29 |

### Prompt Which max response value belongs to `N#CC(CCCN1CCN(/N=C/c2cccnc2)CC1)(c1ccccc1)c1ccccc1` ?
### Response -20.5

----------
- Test system: Zika virus NS2B-NS3 protease (unlinked complex)
- assay.protocol: Primary screen GU Rhodamine qHTS for Zika virus inhibitors: Unlinked NS2B-NS3 protease assay (AID 1347159); further: nearly all actives have a fitted effect of over 60% in size
- condition.context: Recombinant ZIKV NS2B-NS3 protease, Rhodamine110 substrate fluorescence; series mostly up to 107 µM
Inconclusive results are not listed. The source made the active and inactive calls. Calls come from the whole dose curve; as a rule, active = well fitted inhibition curve with a large enough effect; inconclusive = small, poorly fitted or top-dose-only effect; inactive = no such curve, though single readings can be large or run the other way.
Can you answer with just one of these options? y (active), n (inactive)

Below are worked cases with known answers.
| molecule | assigned.category |
| --- | --- |
| Cn1ncnc1[C@@H]1c2n[nH]c(=O)c3cc(F)cc(c23)N[C@H]1c1ccc(F)cc1 | n |
| CCC(=O)N1CCOc2c(cc(-c3ccc(OC)c(OC)c3)cc2OC[C@H]2CCCN(C)C2)C1 | n |
| C/C=C/C1=CC2=C(CO1)C(=O)C(C)(OC(=O)c1c(C)cc(O)cc1OC)C(O)C2 (configuration not stated) | n |
| COc1ccccc1OCCNCC(O)CCOc1cccc2[nH]c3ccccc3c12 (configuration not stated) | n |
| N#Cc1cc(-c2ccnc(Nc3ccc(N4CCOCC4)cc3)n2)ccc1OC1CCOCC1 | n |
| CNc1cc2[nH]c(=O)n(-c3ccc(NC(=O)NS(=O)(=O)c4ccc(Cl)s4)cc3)c(=O)c2cc1F | n |

### Prompt I'd appreciate the recorded outcome for C=C1C(=O)O[C@@H]2C3C(=C(C)[C@@H](O)[C@@H](OC(=O)/C(=C/C)COC(C)=O)[C@@H]12)C(=O)[C@H]1O[C@@]31C (some centres not stated) from this test.
### Response n

### Prompt I'd appreciate the recorded outcome for `N#Cc1ccc(N2N=C3c4ccc(C(=O)O)cc4CC[C@@H]3[C@@H]2C2CCCC2)cc1Cl` from this test.
### Response y

### Prompt I'd appreciate the recorded outcome for COc1ccc(-c2ccc3c(N4CCOCC4C)nc(N4CCOCC4C)nc3n2)cc1CO (configuration not stated) from this test.
### Response n

### Prompt I'd appreciate the recorded outcome for `CC1(C)OC[C@H](NC(=O)Nc2ccc(Br)cc2Br)[C@H](c2ccccc2)O1` from this test.
### Response n

### Prompt I'd appreciate the recorded outcome for `O=c1[nH]c2ccccc2n1CCN1CCN(c2cccc(C(F)(F)F)c2)CC1` from this test.
### Response n
